tested on: HEK-293T cells; test: Cytotoxicity in HEK-293T cells (Cell Titer Glo); assay type: cell-based, human; settings: Homo sapiens, cytotoxicity, 24 hours with compound, read-out: IC50 HEK-293
TEST READOUT: IC50 (µg/mL)
Write the answer as a number in µg/mL, unit excluded.

# annotated cases, reported IC50 shown
compound=O=C(N/N=C/c1cccc(O)c1)c1cc(O)c(O)c(O)c1 observed=30.1
compound=CCCCNc1nc(-c2cc(O)c(O)c(O)c2)cs1 observed=22
compound=COc1ccc(/C=C/C=N/NC(=O)c2cc(O)c(O)c(O)c2)cc1 observed=23
compound=Oc1cc(-c2csc(-c3ccc(Cl)cc3)n2)cc(O)c1O observed=0.6
compound=CCN(CC)C(=O)c1ccc(-c2ccc3oc(C(=O)c4cc(O)c(O)c(O)c4)cc3c2)cc1 observed=5.35
compound=O=C(c1cc(O)c(O)c(O)c1)N1CCc2ccccc2C1 observed=18.7
compound=O=C(N/N=C/c1cccc2ccccc12)c1cc(O)c(O)c(O)c1 observed=4.2
compound=CCN(Cc1ccccc1)C(=O)c1ccc(-c2ccc3oc(C(=O)c4cc(O)c(O)c(O)c4)cc3c2)cc1 observed=1.4

Return IC50 (reported value) for this compound: `Cc1[nH]c(/C=C/C(=O)c2cc(O)c(O)c(O)c2)c(C)c1C(=O)N1CCN(Cc2ccc(F)cc2)CC1`
7.5

Tell me measured IC50 for `O=C(N/N=C/c1ccc(O)cc1O)c1cc(O)c(O)c(O)c1` please.
17.6

// fetch IC50 given entry `O=C(c1cc2cc(-c3ccc(CO)cc3)ccc2o1)c1ccc(B(O)O)cc1F`
11

// fetch IC50 given entry O=C(c1cc(O)c(O)c(O)c1)N1CCC(c2ccccc2)C1 (stereo not drawn)
43.7

Quickly give me recorded IC50 for `COc1ccc(/C=N/NC(=O)c2cc(O)c(O)c(O)c2)c(OC)c1`
8.2

Answer with the recorded IC50 for the compound listed here: `COc1cccc(/C=N/NC(=O)c2cc(O)c(O)c(O)c2)c1O`
34

Given `O=C(c1cc(O)c(O)c(O)c1)c1cc2cc(-c3ccc(C(F)(F)F)nc3)ccc2o1` , respond with its IC50.
5.4

Respond only with IC50 recorded for `CCCCNS(=O)(=O)c1ccc(-c2ccc3oc(C(=O)c4cc(O)c(O)c(O)c4)cc3c2)cc1`
15

For the compound `O=C(N/N=C/c1ccc(O)c(Cl)c1)c1cc(O)c(O)c(O)c1` , give its measured IC50 value.
54.5

Return IC50 (reported value) for this compound: `O=C(N/N=C/c1ccc(O)cc1Cl)c1cc(O)c(O)c(O)c1`
50

Report IC50, nothing else, for this compound: `COc1cc(/C=N/NC(=O)c2cc(O)c(O)c(O)c2)cc(O)c1OC`
10.4

Output IC50 of `O=C(N/N=C/c1cccc(O)c1O)c1cc(O)c(O)c(O)c1`
5.4

Indicate its recorded IC50; the compound in question is `O=C(c1cc(O)c(O)c(O)c1)c1cc2cc(-c3ccc(C(=O)NC4CCCC4)c(Cl)c3)ccc2o1`
2.5

Please give measured IC50 of the following entry: `O=C1/C(=C/c2cc(O)c(O)c(O)c2)Oc2ccccc21`
23

====

Measured IC50 by item
system: HEK-293T cells; assay: Cytotoxicity in HEK-293T cells (Cell Titer Glo); type: cell-based, human; details: Homo sapiens, cytotoxicity, 24 hours with compound, read-out: IC50 HEK-293

compound="COc1ccc(CNC(=O)c2cc(O)c(O)c(O)c2)cc1OC [APY-077]" observed="> 32 µg/mL"
compound="COc1cc(CCC(=O)c2cc(O)c(O)c(O)c2)cc(OC)c1OC [APY-069]" observed="> 128 µg/mL"
compound="COc1cccc(/C=N/NC(=O)c2ccc(O)c(O)c2)c1O [APY-054]" observed="> 64 µg/mL"
compound="COc1cc(/C=C2\\Oc3cc(O)cc(O)c3C2=O)cc(OC)c1OC [APY-003]" observed="> 64 µg/mL"

Recall the reported IC50 of CN(C)CCNC(=O)c1ccc2oc(C(=O)c3cc(O)c(O)c(O)c3)cc2c1 [NED-2018] on HEK-293T cells and write it down.
> 128 µg/mL

With HEK-293T cells as the test system, provide measured IC50 for this compound: O=C(c1ccc([N+](=O)[O-])cc1)c1cc2cc(-c3ccc(CO)cc3)ccc2o1 [APY-100]
> 128 µg/mL

Under HEK-293T cells, report IC50 for CCN(CC)CCNC(=O)c1ccc2oc(C(=O)c3cc(O)c(O)c(O)c3)cc2c1 [NED-2019]
> 64 µg/mL

# return IC50 of O=C1/C(=C/c2cc(O)cc(O)c2)Oc2cc(O)cc(O)c21 [APY-014] (system: HEK-293T cells)
> 64 µg/mL
